The values you see were collected from patent US20240254115A1.

- System name: human σ2/TMEM97 receptor (Homo sapiens, UniProt Q5BJF2)
- Sequence (Q5BJF2 whole entry): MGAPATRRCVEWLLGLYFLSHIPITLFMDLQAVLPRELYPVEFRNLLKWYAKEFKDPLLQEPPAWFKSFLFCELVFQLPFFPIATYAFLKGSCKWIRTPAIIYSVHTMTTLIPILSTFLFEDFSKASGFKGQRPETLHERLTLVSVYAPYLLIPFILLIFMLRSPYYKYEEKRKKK
- Assay procedure: Binding assay to human σ2/TMEM97 receptor
- Run parameters: transfected HEK-293 membranes, 10 nM [3H]-DTG, 25° C. 120 minutes; + may also stand for 1-50% inhibition at 1 or 10 μM; read-out: Binding σ-2 Ki
pKi: −log10 of the molar value.
Quantity kind: pKi

Cc1ccc(S(=O)(=O)N2CCC3(CCN(CCC(C)(C)C)CC3)CC2)cn1 = > 7.00
CC(C)(C)CCN1CCC2(CC1)CCN(S(=O)(=O)c1ccc(N3CCC(F)(F)CC3)nc1)C2 = > 7.00
CC(C)(C)CCN1CCC2(CC1)CCN(S(=O)(=O)c1ccc(N3CCCC3=O)nc1)C2 = > 7.00
CC(C)(C)CCN1CCC2(CC1)CCN(S(=O)(=O)c1ccc(N3CCC(F)(F)CC3)nc1)CC2 = > 7.00
CC(C)(C)CCN1CCC2(CCCN(S(=O)(=O)c3ccc(-c4ccncc4)nc3)C2)CC1 = > 7.00
O=S(=O)(c1ccc(N2CCC(F)(F)CC2)nc1)N1CCC2(CCN(CC3CCOCC3)CC2)C1 = > 7.00

Supply reported pKi belonging to this compound: O=C1OCCN1c1ccc(S(=O)(=O)N2CCC3(CCCN(Cc4ccccc4F)C3)CC2)cn1
6.30 to 7.00

====

- System name: human σ2/TMEM97 receptor (Homo sapiens)
- Assay procedure: Binding assay to human σ2/TMEM97 receptor
- Run parameters: transfected HEK-293 membranes, 10 nM [3H]-DTG, 25° C. 120 minutes; + may also stand for 1-50% inhibition at 1 or 10 μM; read-out: Binding σ-2 Ki
Quantity kind: Ki

Some compounds with known Ki results, for comparison:
O=S(=O)(N[C@@H]1CCN(Cc2ccc(C(F)(F)F)nc2)C1)c1ccc(N2CCOCC2)nc1 [Example 44] = > 1000 nM
CN(Cc1cccnc1)[C@H]1CC[C@H](NS(=O)(=O)c2ccc(N3CCOCC3)nc2)CC1 [Example 59] = > 1000 nM
O=S(=O)(c1ccc(N2CCOCC2)nc1)N1CCC2(CCN(Cc3ccccc3)CC2)CC1 [Example 12] = < 100 nM
O=C1OCCN1c1ccc(S(=O)(=O)N2CCCC3(CCN(Cc4ccccc4F)CC3)C2)cn1 [Example 159] = < 100 nM
CN(C)c1ccc(S(=O)(=O)N[C@H]2CC[C@H](N(C)Cc3ccccc3)CC2)cn1 [Example 30] = 100 to 500 nM

Find Ki for O=C1OCCN1c1ccc(S(=O)(=O)N2CCC3(CCN(CC4CCOCC4)CC3)CC2)cn1 [Example 128] on human σ2/TMEM97 receptor (Homo sapiens) and write it down.
< 100 nM

Find Ki for O=S(=O)(N[C@@H]1CCN(Cc2cccc(F)c2)C1)c1ccc(N2CCOCC2)nc1 [Example 38] on human σ2/TMEM97 receptor (Homo sapiens) and write it down.
> 1000 nM

Find Ki for CC(C)(C)CCN1CCCC2(CCN(S(=O)(=O)c3ccc(N4CCCC4=O)nc3)CC2)C1 [Example 136] on human σ2/TMEM97 receptor (Homo sapiens) and write it down.
< 100 nM

Find Ki for O=S(=O)(c1ccc(N2CCOCC2)nc1)N1CCCC2(CCN(Cc3ccncc3)CC2)C1 [Example 63] on human σ2/TMEM97 receptor (Homo sapiens) and write it down.
< 100 nM

Find Ki for CC(C)(C)CCN1CCC2(CC1)CCN(S(=O)(=O)c1ccc(N3CCOCC3)nc1)C2 [Example 79] on human σ2/TMEM97 receptor (Homo sapiens) and write it down.
< 100 nM

Find Ki for CC(C)CCN1CCC2(CC1)CCN(S(=O)(=O)c1ccc(C(F)(F)F)nc1)CC2 [Example 93] on human σ2/TMEM97 receptor (Homo sapiens) and write it down.
< 100 nM

Find Ki for O=S(=O)(NC1CCN(Cc2cccc(F)c2)CC1)c1ccc(N2CCOCC2)nc1 [Example 8] on human σ2/TMEM97 receptor (Homo sapiens) and write it down.
> 1000 nM

Find Ki for O=S(=O)(c1ccc(N2CCC(F)(F)CC2)nc1)N1CCCC2(CCN(CC3CCOCC3)CC2)C1 [Example 101] on human σ2/TMEM97 receptor (Homo sapiens) and write it down.
< 100 nM

Find Ki for CN(Cc1ccc(F)c(C#N)c1)[C@H]1CC[C@H](NS(=O)(=O)c2ccc(N3CCOCC3)nc2)CC1 [Example 58] on human σ2/TMEM97 receptor (Homo sapiens) and write it down.
< 100 nM

Find Ki for CC(C)(C)CN1CCC2(CC1)CCN(S(=O)(=O)c1ccc(N3CCC(F)(F)CC3)nc1)CC2 [Example 99] on human σ2/TMEM97 receptor (Homo sapiens) and write it down.
< 100 nM

Find Ki for CC(C)(C)CCN1CCC2(CC1)CCN(S(=O)(=O)c1ccc(N3CCCCC3=O)nc1)CC2 [Example 132] on human σ2/TMEM97 receptor (Homo sapiens) and write it down.
< 100 nM
